Items are presented alongside their recorded EC50.
- measured-target: murine Claudin 18.2 expressed on HEK293 cells (murine) (UniProt P56857)
- Sequence (P56857 whole entry): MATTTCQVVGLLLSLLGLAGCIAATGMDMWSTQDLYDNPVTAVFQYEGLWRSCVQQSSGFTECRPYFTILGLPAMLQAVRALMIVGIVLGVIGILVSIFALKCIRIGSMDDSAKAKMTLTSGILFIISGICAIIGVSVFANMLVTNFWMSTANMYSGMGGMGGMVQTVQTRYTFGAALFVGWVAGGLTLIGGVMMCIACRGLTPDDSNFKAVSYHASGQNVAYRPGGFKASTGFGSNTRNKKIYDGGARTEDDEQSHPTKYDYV
- test-protocol: flow cytometry on HEK293 cells expressing murine Claudin 18.2
Number in nM, nothing else.

AHP32919 (antibody, V domains shown) VH: QVQLQESGGGVVQPGGSLRLSCAASQSIGLLSTMGWYRQAAGKQRELVATITRGGSTNYGEFVKGRFTISRDNAKNTVYLQMNSLKPEDTAVYYCTADESWLGTQSYWGRGTRVTVSS VL: QAGLTQPPSASGTPGQGVTISCSGSSSNIGSNSVNWYQQLPGTAPKLLMHSNNERSSGVPDRFSGSKSGSSASLAISGLQSEDAADYFCGAWDDSLNGYVFGTGTKLTVL ... 0.772
AHP30826 (antibody, V domains shown) VH: QVQLQQSGGGSVQAGGSLRLSCAASGTILSINAMGWYRQAPGKQRELVATITTGGNANYAHSVKGRFTISRDNAKNTVYLQMNNLKPEDTAVYYCNAEQVVVGFLQAYDVWGQGTTVTVSS VL: DVVMTQSPLSLPVTLGQAASISCRSSQSLVHGDGNTYLNWIQQRPGQSPRRLIYKVSNRDSGVPDRFSGSGSGTDFTLKISRVEAEDVGVYYCMQGTHWPSTFGPGTKVDIK ... 3.44
AHP31548 (antibody, V domains shown) VH: QVQLMQSGGGLVQPGGSLRLSCAASRNIGILSTMGWYRQAPGKQRELVATITRGGSTNYGEFVKGRFTISRDNAKNTVYLQMNSLKPEDTAVYYCNVDESWLGTQSYWGRGTTVTVSS VL: QSALTQPPSASGSPGQSVTISCTGTSSDIGTYNFVSWYQQHPGKAPKLIIYEVSKRPSGVPDRFSGSKSGNTASLTVSGLQAEDEADYYCKSYPRVFGTGTKLTAL ... 1.67
AHP32913 (antibody, V domains shown) VH: QVQLMQSGGGLVQPGGSLRLSCAASRNIGILSTMGWYRQAPGKQRELVATITRGGSTNYGEFVKGRFTISRDNAKNTVYLQMNSLKPEDTAVYYCNVDESWLGTQSYWGRGTQVTVSS VL: QAVVTQEPSLTVSPGGTVTLTCGSSTGPVTSGHYPHWYQQKPGQAPKTLIFDTSHKHPWTPAQFSGSLLGGKAALTLSGAHPEDEAEYYCLLSYSGVRVFGGGTQLIIL ... 0.728
AHP29153 (antibody, V domains shown) VH: QLQQVESGGGLVQPGGSLRLSCAASRNIGILSTMGWYRQAPGKQRELVATITRGGSTNYGEFVKGRFTISRDNAKNTVYLQMNSLKPEDTAVYYCNVDESWLGTQSYWGRGTTVTVSS VL: QSVLTQPASVSGSPGQSITISCTGTSSDVGGYKYVSWYQQPPGKAPKLIIYEVTKRPSGVPDRFSGSKSGNTASLTVSGLQAEDEADYYCLSYAGSNNVFGTGTKLTVL ... 4.45

// below: EC50 requested for another binder
Ask | Any idea what EC50 was measured for AHP32982 (antibody, V domains shown) VH: QVQLVQSGGGLVQPGGSLRLSCAASRNIGILSTMGWYRQAPGKQRELVATITRGGSTNYGEFVKGRFTISRDNAKNTVYLQMNSLKPEDTAVYYCNVDESWLGTQSYWGRGPLVTVSS VL: DIVMTQSPSSVSASVGDRVTITCRASQGISSWLAWYQQKPGKAPKLLIYAASSLQSGVPSRFSGSGSGTDFTLTISSLQPEDFATYYCQQANSFPLTFGGGTKVEIK ?
Reply | 4.03

Source of measurements: patent EP4786493A1
